Molecular target: human (hACC2) (Homo sapiens)
Sequence (O00763 whole entry): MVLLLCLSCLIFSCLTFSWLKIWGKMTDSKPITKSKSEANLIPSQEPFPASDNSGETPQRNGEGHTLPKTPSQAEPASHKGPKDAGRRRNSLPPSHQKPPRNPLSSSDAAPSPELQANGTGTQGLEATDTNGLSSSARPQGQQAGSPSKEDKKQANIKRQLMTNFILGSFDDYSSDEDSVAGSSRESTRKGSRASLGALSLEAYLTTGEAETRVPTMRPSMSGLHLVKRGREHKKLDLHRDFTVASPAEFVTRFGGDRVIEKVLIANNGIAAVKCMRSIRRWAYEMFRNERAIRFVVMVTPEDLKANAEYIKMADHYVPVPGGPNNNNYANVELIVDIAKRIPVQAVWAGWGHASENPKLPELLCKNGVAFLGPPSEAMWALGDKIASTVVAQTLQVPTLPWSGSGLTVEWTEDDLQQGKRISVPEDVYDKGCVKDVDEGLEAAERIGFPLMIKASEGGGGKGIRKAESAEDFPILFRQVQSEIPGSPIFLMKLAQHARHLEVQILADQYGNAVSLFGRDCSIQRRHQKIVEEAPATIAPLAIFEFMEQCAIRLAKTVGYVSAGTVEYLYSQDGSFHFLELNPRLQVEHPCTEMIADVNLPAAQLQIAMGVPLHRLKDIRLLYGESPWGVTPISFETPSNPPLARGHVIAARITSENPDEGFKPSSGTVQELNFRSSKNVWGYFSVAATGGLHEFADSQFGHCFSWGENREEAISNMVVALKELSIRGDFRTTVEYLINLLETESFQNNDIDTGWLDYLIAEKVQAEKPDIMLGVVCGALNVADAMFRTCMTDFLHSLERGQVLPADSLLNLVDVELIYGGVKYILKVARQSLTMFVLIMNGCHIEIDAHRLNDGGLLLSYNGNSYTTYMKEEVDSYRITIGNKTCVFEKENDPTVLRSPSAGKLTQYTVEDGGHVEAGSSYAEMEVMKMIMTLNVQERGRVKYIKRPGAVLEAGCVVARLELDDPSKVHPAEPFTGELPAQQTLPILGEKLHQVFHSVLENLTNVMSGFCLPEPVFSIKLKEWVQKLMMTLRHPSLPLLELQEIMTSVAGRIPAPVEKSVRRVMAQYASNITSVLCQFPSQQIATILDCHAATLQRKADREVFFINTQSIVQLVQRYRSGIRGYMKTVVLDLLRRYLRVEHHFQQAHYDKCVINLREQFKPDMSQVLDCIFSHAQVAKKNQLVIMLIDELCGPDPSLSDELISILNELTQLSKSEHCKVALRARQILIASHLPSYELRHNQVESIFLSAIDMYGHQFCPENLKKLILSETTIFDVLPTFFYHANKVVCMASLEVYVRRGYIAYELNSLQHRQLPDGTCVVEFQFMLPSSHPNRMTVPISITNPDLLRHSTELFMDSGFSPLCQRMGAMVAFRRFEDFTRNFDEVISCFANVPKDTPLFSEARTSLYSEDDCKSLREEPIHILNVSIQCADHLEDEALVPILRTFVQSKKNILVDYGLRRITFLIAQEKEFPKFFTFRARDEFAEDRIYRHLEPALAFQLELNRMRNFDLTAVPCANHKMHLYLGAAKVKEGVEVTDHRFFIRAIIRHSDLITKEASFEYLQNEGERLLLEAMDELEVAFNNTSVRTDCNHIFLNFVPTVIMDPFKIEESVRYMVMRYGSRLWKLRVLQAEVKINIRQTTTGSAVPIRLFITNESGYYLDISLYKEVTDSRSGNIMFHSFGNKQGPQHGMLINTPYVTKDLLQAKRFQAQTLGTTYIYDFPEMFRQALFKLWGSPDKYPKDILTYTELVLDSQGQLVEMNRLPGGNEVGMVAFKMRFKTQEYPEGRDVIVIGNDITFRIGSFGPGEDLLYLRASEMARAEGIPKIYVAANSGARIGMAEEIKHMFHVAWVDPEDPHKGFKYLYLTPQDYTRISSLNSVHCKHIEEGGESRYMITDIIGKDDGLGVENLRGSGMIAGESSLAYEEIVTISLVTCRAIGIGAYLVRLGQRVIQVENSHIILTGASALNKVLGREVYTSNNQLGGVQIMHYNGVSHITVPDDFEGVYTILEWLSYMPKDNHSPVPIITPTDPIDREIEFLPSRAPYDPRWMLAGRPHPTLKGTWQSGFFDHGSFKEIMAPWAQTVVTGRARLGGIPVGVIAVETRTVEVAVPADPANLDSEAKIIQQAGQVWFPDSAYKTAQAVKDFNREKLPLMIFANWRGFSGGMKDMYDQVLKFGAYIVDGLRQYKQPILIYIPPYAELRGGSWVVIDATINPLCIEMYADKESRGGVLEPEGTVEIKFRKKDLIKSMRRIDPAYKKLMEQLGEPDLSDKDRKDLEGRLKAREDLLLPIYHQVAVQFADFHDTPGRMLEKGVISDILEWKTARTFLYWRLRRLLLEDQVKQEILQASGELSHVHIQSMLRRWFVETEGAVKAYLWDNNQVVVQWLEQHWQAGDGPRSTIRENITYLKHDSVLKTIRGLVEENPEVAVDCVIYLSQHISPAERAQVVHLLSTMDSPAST
Experiment: In vitro ACC inhibition assay (ADP-Glo), hACC2
Assay type: biochemical
Details: Table 2b, additional results, 5 nM ACC2, 20 μM ATP, 20 μM acetyl-CoA
pIC50: −log10 of the molar value.
# pIC50 values compiled below

Example results:
1. COc1ccccc1[C@H](O)Cn1c(=O)n(C(C)(C)C(=O)NC(C)C)c(=O)c2c(C)c(-n3nccn3)sc21    7.40 to 8.00
2. CCOC(=O)[C@H]1CC[C@@H](O[C@@H](Cn2c(=O)n(C(C)(C)C(=O)NC(C)C)c(=O)c3c(C)c(-n4nccn4)sc32)c2cc(F)ccc2OC)CC1    7.40 to 8.00
3. COc1ccc(F)cc1[C@@H](Cn1c(=O)n(C(C)(C)C(=O)NC(C)C)c(=O)c2c(C)c(-n3nccn3)sc21)OC(=O)CO    8.00 to 8.30

Query: Identify the reported pIC50 for the following entry. "COc1ccc(F)cc1[C@H](Cn1c(=O)n(C(C)(C)C(=O)NCC(C)C)c(=O)c2c(C)c(-n3nccn3)sc21)OC1CCOCC1"
Reply: 8.00 to 8.30

Query: Identify the reported pIC50 for the following entry. "COc1ccccc1[C@H](Cn1c(=O)n([C@H](C)C(=O)N(C)C(C)C)c(=O)c2c(C)c(-n3nccn3)sc21)OCCC#N"
Reply: 8.00 to 8.30

Query: Identify the reported pIC50 for the following entry. "COc1ccc(F)cc1[C@H](Cn1c(=O)n(C(C)(C)C(=O)N(O)C(C)C)c(=O)c2c(C)c(-n3nccn3)sc21)OCCCO"
Reply: 8.00 to 8.30

###

# IC50 values compiled below
Biological target: human (hACC2) (Homo sapiens)
Assay: In vitro ACC inhibition assay (ADP-Glo), hACC2
Type: biochemical
Settings: Table 2a, 5 nM ACC2, 20 μM ATP, 20 μM acetyl-CoA

Example results:
1. COc1ccc(F)cc1[C@H](Cn1c(=O)n(C(C)(C)C(=O)N2CCCCC2)c(=O)c2c(C)c(-n3nccn3)sc21)OC1CCC(=O)CC1    5 to 10 nM
2. COCCO[C@@H](Cn1c(=O)n(C(C)(C)C(=O)NC2CCC2)c(=O)c2c(C)c(-n3nccn3)sc21)c1cc(F)ccc1OC [Compound I-102]    1 to 5 nM
3. COc1ccc(F)cc1[C@H](Cn1c(=O)n(C(C)(C)C(=O)NC(C)C)c(=O)c2c(C)c(-n3nccn3)sc21)OCC(C)(C)C#N    5 to 10 nM
4. COc1ccc(F)cc1[C@H](Cn1c(=O)n(C(C)(C)C(N)=O)c(=O)c2c(C)c(-n3nccn3)sc21)OC(C)C    1 to 5 nM
5. COc1ccc(F)cc1[C@H](Cn1c(=O)n(C(C)(C)C(=O)N2CCCC2)c(=O)c2c(C)c(-n3nccn3)sc21)OCC(O)C(F)(F)F (stereo partly drawn)    1 to 5 nM

Query: Identify the reported IC50 for the following entry. "COc1ccccc1[C@H](Cn1c(=O)n(C(C)(C)C(=O)NC2CCCCC2)c(=O)c2c(C)c(-n3nccn3)sc21)OC1CCOCC1"
Reply: 5 to 10 nM

###

System: C. krusei
Assay: Antifungal Activity Assay (broth microtiter MIC), C. krusei
Type: cell-based, Candida krusei
Details: Pichia kudriavzevii, ATCC6258, 48 h, read-out: MIC, C. krusei ATCC 6258, Table 3b (additional results), 3 replicates, MIC recorded at 48 h
# MIC values compiled below

Query: Identify the reported MIC for the following entry. "COc1ccc(F)cc1[C@H](Cn1c(=O)n(C(C)(C)C(=O)NCC#N)c(=O)c2c(C)c(-n3nccn3)sc21)OC(C)C"
Reply: 0.25 to 1 µg/mL

Query: Identify the reported MIC for the following entry. "COc1ccc(F)cc1[C@H](Cn1c(=O)n(CC(=O)NC(C)C)c(=O)c2c(C)c(-n3nccn3)sc21)OCCO"
Reply: 2.01 to 4 µg/mL

Query: Identify the reported MIC for the following entry. "COc1ccc(F)cc1[C@H](Cn1c(=O)n([C@@H](C)C(=O)NC(C)C)c(=O)c2c(C)c(-n3nccn3)sc21)OCCO"
Reply: 1.01 to 2 µg/mL
